- protocol description: chemical genetic growth profiling, strain panel (AID 1159580);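 also: tested at 20 µM; growth read once vehicle control cultures reached saturation at 30 °C; 1 = growth at the plate median or of vehicle wells; lower values mean less growth of the strain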
- experimental setup: S. cerevisiae deletion strains, growth OD, locus YFL029C, strain CAK1, hits give low values
The campaign covered roughly 5,500 compounds. About 2,000 (36%) were called active. Another 18% or so got no clear call; they are omitted. The list shows a part of the results.
quantity name: normalized growth

Some solved cases for reference:
molecule | normalized growth
O=C(NNc1ccc(Cl)cc1)c1ccc(F)cc1F | 0.944 (inactive)
O=C1CSC(c2ccc(C(F)(F)F)cc2)N1c1ccc(C(F)(F)F)cc1 (stereo unspecified) | 0.986 (inactive)
CC(C)(C)C(=O)/C(C#N)=C/c1c(Cl)cccc1Cl | 0.315 (active)

Input line: Returns the measured normalized growth for the input molecule. Input: O=C(Nc1cccc2ccccc12)c1ccccc1O
Output line: 0.845 (active)

Input line: What normalized growth value was documented for this molecule, CSC(=NNc1ccccc1)NC(=O)c1c(Cl)cccc1Cl ?
Output line: 0.958 (inactive)

Input line: Recorded normalized growth for O=[N+]([O-])c1ccc(-c2csc(Nc3ccncc3)n2)cc1 , please?
Output line: 1.01 (inactive)

---

Measured normalized growth values are reported for all entries that follow.
- protocol description: chemical genetic growth profiling, strain panel (AID 1159580)
- experimental setup: S. cerevisiae deletion strains, growth OD, locus YNL209W, strain ssb2, hits give low values
In all, about 5,500 compounds went through this assay and about 2,000 (36%) were called active. Not shown: some 18% with an inconclusive outcome. The list shows a part of the results.
Respond with the number and no other words.

Here is how some compounds turned out for normalized growth.
compound | normalized growth
COc1cc([C@H]2Oc3cc([C@H]4Oc5cc(O)cc(O)c5C(=O)[C@@H]4O)ccc3O[C@@H]2CO)ccc1O | 1.01
C=C1C2CC[C@@]3(C)[C@H](c4ccoc4)OC(=O)C[C@]13O[C@H]1CC(O)C(C)(C)C(CC(=O)OC)[C@@]21C (stereo partly specified) | 0.979
C=C1C2CCC3(C)C(c4ccoc4)OC(=O)CC13OC1CC(OC(C)=O)C(C)(C)C(CC(=O)OC)C12C (stereo unspecified) | 1.02
CC(=O)Nc1ccccc1 | 0.975
C=C1C2=CC(=O)O[C@@H](c3ccoc3)[C@]2(C)CCC1[C@@]1(C)C=CC(=O)C(C)(C)[C@@H]1CC(=O)OC (stereo partly specified) | 1.03

Input line: Given CC1=C2[C@H]3OC(=O)[C@@H](C)[C@@H]3CC[C@@]2(C)C=CC1=O , state its recorded normalized growth.
Output line: 0.981

---

- protocol description: chemical genetic growth profiling, strain panel (AID 1159580)
- experimental setup: S. cerevisiae deletion strains, growth OD, locus YPL240C, strain hsp82, hits give low values
Out of some 5,500 compounds screened, about 2,000 (36%) were called active. Another 18% or so got no clear call; they are omitted. Some of the results follow.
Here, each record is paired with measured normalized growth data.

In the examples that follow, each entry is paired with its recorded normalized growth.
compound | normalized growth
CCN(CC)CCOC(=O)C(c1ccccc1)c1ccccc1 | 0.958 (inactive)
C=C1C2CC[C@@]3(C)[C@H](c4ccoc4)OC(=O)C[C@]13O[C@H]1CC(=O)C(C)(C)C(CC(=O)OC)[C@@]21C (some centres undefined) | 0.965 (inactive)
C=C1C2=CC(=O)O[C@@H](c3ccoc3)[C@]2(C)CCC1[C@@]1(C)C=CC(=O)C(C)(C)[C@@H]1CC(=O)OC (some centres undefined) | 0.992 (inactive)

Input line: May I ask what normalized growth has been recorded for CO[C@]12C[C@@H](COC(=O)c3cncc(Br)c3)CN(C)[C@@H]1Cc1cn(C)c3cccc2c13 ?
Output line: 1.02 (inactive)

Input line: For CN(C)C(=O)Nc1ccc(Cl)c(Cl)c1 , what is its reported normalized growth?
Output line: 0.982 (inactive)

Input line: Dear colleague, I am looking for the recorded normalized growth of the following compound: Cc1cc(O)c(C=O)c2c1C(=O)Oc1c(COC(=O)/C=C/C(=O)O)c(O)c(C(=O)O)c(C)c1O2
Output line: 1.01 (inactive)

---

- protocol description: chemical genetic growth profiling, strain panel (AID 1159580)
- experimental setup: S. cerevisiae deletion strains, growth OD, locus YMR129W, hits give low values
Out of some 5,500 compounds screened, about 2,000 (36%) were called active. Another 18% or so got no clear call; they are omitted. Some of the results follow.
Parameter normalized growth: see the listing below.

Here is how some compounds turned out for normalized growth.
compound | quantity name | readout value
CN(CCC(N)CC(=O)N[C@H]1C=CC(n2ccc(N)nc2=O)O[C@@H]1C(=O)O)C(=N)N (some centres not stated) | normalized growth | 0.949 (inactive)
Nc1ccn(C2O[C@H](CO)[C@@H](O)[C@H]2O)c(=O)n1 (some centres not stated) | normalized growth | 0.991 (inactive)
CC1CCC2(OC1)OC1CC3C4CCC5C[C@@H](O)CCC5(C)C4=CCC3(C)C1[C@@H]2C (some centres not stated) | normalized growth | 0.997 (inactive)
O=C(Nc1ccccc1)Nc1ccccc1 | normalized growth | 0.959 (inactive)
CC(=O)Nc1ccccc1 | normalized growth | 0.984 (inactive)
CC1(C)C(O)CC(O)C2(C)C1CC(O)C1(C)C2CCC2(C)C(c3ccoc3)OC(=O)C3OC321 (configuration not stated) | normalized growth | 0.989 (inactive)

Field: next compound
Input line: I'd like to know its normalized growth. The compound in question is Nc1ccncc1
Output line: 0.993 (inactive)

---

- protocol description: chemical genetic growth profiling, strain panel (AID 1159580);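 also: tested at 20 µM; growth read once vehicle control cultures reached saturation at 30 °C; 1 = growth at the plate median or of vehicle wells; lower values mean less growth of the strain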
- experimental setup: S. cerevisiae deletion strains, growth OD, locus YPL078C, strain atp4, hits give low values
Hit rate of the full screen: of about 5,500 compounds, about 2,000 (36%) were called active. About 18% were inconclusive and are not listed. The list shows a part of the results.
Listed below: normalized growth values for each entry.
I only need the number, thanks.

Example results:
molecule | quantity name | readout value
C[C@H](CCC(=O)O)[C@H]1CCC2C3C(CC[C@@]21C)[C@@]1(C)CC[C@@H](O)C[C@H]1C[C@@H]3O (some centres undefined) | normalized growth | 0.931
O=c1cc(-c2ccccc2)oc2c(O)c(O)ccc12 | normalized growth | 0.989
COC(=O)CCC(C)C1CCC2C3CC[C@@H]4C[C@H](O)CC[C@]4(C)C3C[C@H](O)[C@]12C (some centres undefined) | normalized growth | 0.943
O=c1cc(-c2ccc(O)cc2)oc2cc(O)cc(O)c12 | normalized growth | 1
COC(=O)CCC(C)[C@H]1CCC2C3C(C[C@H](O)[C@@]21C)[C@@]1(C)CC[C@@H](O)C[C@H]1C[C@H]3O (some centres undefined) | normalized growth | 1.03

Input line: Returns the measured normalized growth for the input molecule. Input: O=c1cc(-c2ccc(O)cc2)oc2cc(O)ccc12
Output line: 0.963

Input line: State the recorded normalized growth for this entry: CC(=O)N=c1sc(S(N)(=O)=O)nn1C
Output line: 1.01

Input line: Given CC[C@H](CCC(C)[C@H]1CCC2C3CCC4C[C@@H](O)CC[C@]4(C)C3CC[C@@]21C)C(C)C (some centres undefined) , state its recorded normalized growth.
Output line: 0.989

Input line: What does the data say about its normalized growth? Entry: CC(CCC(=O)O)[C@H]1CCC2C3C(C[C@H](O)[C@@]21C)[C@@]1(C)CC[C@@H](O)C[C@H]1C[C@H]3O (some centres undefined)
Output line: 1.03

---

- protocol description: chemical genetic growth profiling, strain panel (AID 1159580);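 also: tested at 20 µM; growth read once vehicle control cultures reached saturation at 30 °C; 1 = growth at the plate median or of vehicle wells; lower values mean less growth of the strain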
- experimental setup: S. cerevisiae deletion strains, growth OD, locus YML070W, strain DAK1, hits give low values
Out of some 5,500 compounds screened, about 2,000 (36%) were called active. Inconclusive results (about 18%) are left out. The list shows a part of the results.
Mark Met for normalized growth under 0.9, Not met if at or over.

molecule | class name
CSC(=NNc1ccccc1)NC(=O)c1c(Cl)cccc1Cl | Met
NNC(=O)c1csc(Cc2c(Cl)sc3ccc(Cl)cc23)n1 | Not met
Cc1ccc(N2C(=O)CSC2c2ccc(Cl)c(Cl)c2)cc1Cl (stereo unspecified) | Not met

Input line: Lab note: normalized growth threshold 0.9. Does this molecule come in strictly under it? O=C(CCn1c(=O)oc2ccccc21)Sc1ccc(Cl)cc1Cl
Output line: Met

---

- protocol description: chemical genetic growth profiling, strain panel (AID 1159580);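 also: tested at 20 µM; growth read once vehicle control cultures reached saturation at 30 °C; 1 = growth at the plate median or of vehicle wells; lower values mean less growth of the strain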
- experimental setup: S. cerevisiae deletion strains, growth OD, locus YNL183C, strain NPR1
The campaign covered roughly 5,500 compounds. About 2,000 (36%) were called active. Not shown: some 18% with an inconclusive outcome. No stated cut-off is given here; in the data, active means normalized growth mostly below about 0.91 (no sharp cut-off); inconclusive means no clear call, values can overlap the other calls; inactive means mostly above about 0.92. This is one part of the list.
Tick one outcome: active, inactive

compound | class name
COc1ccc(OC)c(-c2ccn[nH]2)c1OCc1ccccc1 | inactive
CCCCCC1C(=O)CCC1CC(=O)O (stereo not drawn) | inactive

Input line: Please share the test call associated with O=C(NNc1ccc(Cl)cc1)c1ccc(F)cc1F .
Output line: inactive

Input line: I'd appreciate the recorded outcome for Cc1ccc(S(=O)(=O)Nc2ccc(Oc3ccc(F)cc3)cc2)cc1 from this test.
Output line: inactive

Input line: What classification did Cc1onc(-c2ccccc2)c1C(=O)Sc1ccc(C(F)(F)F)cn1 end up with in this test?
Output line: active

Input line: Each compound tested received a call. Report the one for O=C1/C(=C/c2ccc(C(F)(F)F)cc2)COc2ccccc21 .
Output line: inactive

Input line: Which outcome was assigned to CCCCCC1C(=O)CCC1CC(=O)OC (stereo not drawn) in this test?
Output line: inactive

The reported measurements were obtained from PubChem BioAssay AID1159580.
